# Tested on: H4 cells overexpressing full-length alpha-synuclein
# experiment: Cellular model of aggregated alpha-synuclein-dependent toxicity, full-length alpha-synuclein H4 cells
# Assay type: cell-based
# condition parameters: 10 μM compound, 100 μM FeCl3, 0.75% DMSO, 48 h
Mark condition met for reported Change in cell number (rel. to DMSO control) [%] of -30% or greater; mark condition not met for anything smaller.

stdin: For this molecule, is measured Change in cell number (rel. to DMSO control) [%] -30% or higher? Brc1cncc(-c2cc(-c3ccc4c(c3)OCO4)n[nH]2)c1
stdout: condition not met

stdin: For this molecule, is measured Change in cell number (rel. to DMSO control) [%] -30% or higher? Brc1ccnc(-c2cc(-c3ccc4c(c3)OCO4)n[nH]2)c1
stdout: condition not met

Source listed as patent US20230067910A1.
